Test system: SKOV3
Assay: MTT cytotoxicity on various cancer cells (Table 1)
Type: cell-based, human
Details: human, 48 h
Where a SMILES comes first, the peptide text is derived from it.
readout: Cytotoxicity (IC50) SKOV3 (µg/mL)
Give bare numbers, in µg/mL.

Using the record for CC(C)C[C@H](NC(=O)[C@H](C)NC(=O)[C@@H]1CCCN1C(=O)[C@H](CCCNC(=N)N)NC(=O)[C@H](C)NC(=O)[C@@H](N)CCC(=O)O)C(=O)N[C@@H](CC(C)C)C(=O)N[C@@H](CO)C(=O)N[C@H](C(=O)N[C@@H](CCCNC(=N)N)C(=O)N[C@@H](Cc1ccccc1)C(=O)N[C@@H](CCCNC(=N)N)C(=O)N1CCC[C@H]1C(=O)N[C@@H](CCCCN)C(=O)O)[C@@H](C)O [HS1005] (H-EARPALLSTRFRPK-OH; N-terminus and C-terminus assumed) , state its measured Cytotoxicity (IC50) SKOV3.
14.08

Now for another entry.
# return recorded Cytotoxicity (IC50) SKOV3 for entry CC(C)C[C@H](NC(=O)[C@H](C)NC(=O)[C@@H]1CCCN1C(=O)[C@H](CCCNC(=N)N)NC(=O)[C@H](C)NC(=O)[C@@H](N)CCC(=O)O)C(=O)N[C@@H](CC(C)C)C(=O)N[C@@H](CO)C(=O)N[C@H](C(=O)N[C@@H](CCCNC(=N)N)C(=O)N[C@@H](CC(C)C)C(=O)N[C@@H](CCCNC(=N)N)C(=O)N1CCC[C@H]1C(=O)O)[C@@H](C)O [HS1001] (H-EARPALLSTRLRP-OH; N-terminus and C-terminus assumed)
6.14

----------
Would you mind telling me the reported Cytotoxicity (IC50) SKOV3 of each entry?
System: SKOV3
Test: MTT cytotoxicity on various cancer cells (Table 1)
Format: cell-based, human
Conditions: human, 48 h
Where a SMILES comes first, the peptide text is derived from it. [ ]: non-standard residue; d: D form. pGlu = O=C1CC[C@@H](C(=O)O)N1
Numbers only, in mg/L.

Specify Cytotoxicity (IC50) SKOV3 for CCNC(=O)[C@@H]1CCCN1C(=O)[C@@H](NC(=O)[C@H](Cc1ccccc1)NC(=O)[C@H](C)NC(=O)[C@H](CC(C)C)NC(=O)[C@H](CCCNC(=N)N)NC(=O)[C@H](Cc1ccc(O)cc1)NC(=O)[C@H](CO)NC(=O)[C@H](Cc1c[nH]c2ccccc12)NC(=O)[C@H](Cc1c[nH]cn1)NC(=O)[C@@H]1CCC(=O)N1)[C@@H](C)CC [HS1004] ([pGlu]HWSYRLAFIP-NHEt; C-terminus assumed) and stop.
5.19

Consider the molecule CCNC(=O)[C@@H]1CCCN1C(=O)[C@@H](NC(=O)[C@H](Cc1ccccc1)NC(=O)[C@H](CCCNC(=N)N)NC(=O)[C@@H]1CCCN1C(=O)[C@H](C)NC(=O)[C@H](Cc1ccc(O)cc1)NC(=O)[C@H](CO)NC(=O)[C@H](Cc1c[nH]c2ccccc12)NC(=O)[C@H](Cc1c[nH]cn1)NC(=O)[C@@H]1CCC(=O)N1)[C@@H](C)CC [HS1003] ([pGlu]HWSYAPRFIP-NHEt; C-terminus assumed) and give its recorded Cytotoxicity (IC50) SKOV3.
5.79

As a next step, examine the molecule that follows.
// fetch Cytotoxicity (IC50) SKOV3 given entry CC(C)C[C@H](NC(=O)CNC(=O)[C@@H](NC(=O)[C@H](CO)NC(=O)[C@H](CC(C)C)NC(=O)[C@H](CC(C)C)NC(=O)[C@H](C)NC(=O)[C@@H]1CCCN1C(=O)[C@H](CCCNC(=N)N)NC(=O)[C@H](C)NC(=O)[C@@H](N)CCC(=O)O)[C@@H](C)O)C(=O)N[C@@H](CCCNC(=N)N)C(=O)N1CCC[C@H]1C(=O)N[C@@H](CCCCN)C(=O)O [HS1006] (H-EARPALLSTGLRPK-OH; N-terminus and C-terminus assumed)
13.91
